Please provide measured pKi for the entries that follow.
target of assay: human serotonin transporters (Homo sapiens)
Construct: expressed in transfected cells; host or cells: HEK-293 (HEK-hSERT), membrane homogenates
Sequence (P31645 whole entry): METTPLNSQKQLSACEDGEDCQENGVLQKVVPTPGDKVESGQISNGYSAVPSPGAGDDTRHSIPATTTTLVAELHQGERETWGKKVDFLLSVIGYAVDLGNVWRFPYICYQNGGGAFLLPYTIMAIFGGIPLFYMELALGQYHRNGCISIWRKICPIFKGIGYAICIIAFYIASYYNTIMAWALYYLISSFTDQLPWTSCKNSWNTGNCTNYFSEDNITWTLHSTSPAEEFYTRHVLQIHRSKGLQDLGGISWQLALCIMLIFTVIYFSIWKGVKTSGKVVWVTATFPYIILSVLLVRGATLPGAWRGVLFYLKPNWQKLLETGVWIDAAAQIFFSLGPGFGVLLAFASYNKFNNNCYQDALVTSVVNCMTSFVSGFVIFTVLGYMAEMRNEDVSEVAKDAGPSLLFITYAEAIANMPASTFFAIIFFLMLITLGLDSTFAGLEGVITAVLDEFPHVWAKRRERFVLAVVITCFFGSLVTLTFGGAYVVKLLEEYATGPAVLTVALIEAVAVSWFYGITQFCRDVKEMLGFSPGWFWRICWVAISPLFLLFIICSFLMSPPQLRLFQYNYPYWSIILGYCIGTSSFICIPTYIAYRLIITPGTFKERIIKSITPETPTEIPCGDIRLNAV
procedure details: Serotonin Transporter Binding Assay
particulars: HEK-hSERT cell membranes, 1 nM [3H]-citalopram, Cheng and Prusoff; read-out: SERT Ki
pKi: −log10 of the molar value.

                                   molecule  readout_label    test_value
0  Fc1ccc2[nH]cc(C3CC3CNCCCc3cccnc3)c2c1 (stereo not shown) [Example 63]            pKi  7.00 to 8.00
1  CCN(CC)CCC1CC1c1c[nH]c2ccc(C#N)cc12 (stereo not shown) [Example 144]            pKi  7.00 to 8.00
2  CCCOC(=O)NCCN(CC)C[C@@H]1C[C@H]1c1c[nH]c2ccc(C#N)cc12 (relative stereo) [Example 95]            pKi  8.00 to 9.00

Consider the additional molecule presented here.
Entry under review: CCN(CC)C[C@@H]1C[C@H]1c1c[nH]c2ccc(C#N)cc12 (relative stereo) [Example 48] . Reported pKi?
8.00 to 9.00
